# Measured Target: GDP-KRAS^G12C::SOS1 interaction (Homo sapiens, UniProt P01116, G12C)
# Sequence (P01116 1-169 isoform P01116-2 G12C limits assumed): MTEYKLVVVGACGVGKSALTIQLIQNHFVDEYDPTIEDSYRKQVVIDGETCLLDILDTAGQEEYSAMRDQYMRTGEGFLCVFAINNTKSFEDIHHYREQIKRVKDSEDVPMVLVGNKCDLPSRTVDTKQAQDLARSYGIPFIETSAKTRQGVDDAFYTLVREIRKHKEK
# Test Summary: biochemical
pIC50: −log10 of the molar value.
Quantity Measured: pIC50

Can you share its pIC50? I mean this molecule: `C=CC(=O)N1CCN(c2cccc(-c3noc([C@@]4(C)CCCc5sc(N)c(C#N)c54)n3)c2)CC1`
~5.52
